B1: Caulobacter ParB omega fusion; a variant is named by its letters at X, in order, B8GW30 (parent)
chain: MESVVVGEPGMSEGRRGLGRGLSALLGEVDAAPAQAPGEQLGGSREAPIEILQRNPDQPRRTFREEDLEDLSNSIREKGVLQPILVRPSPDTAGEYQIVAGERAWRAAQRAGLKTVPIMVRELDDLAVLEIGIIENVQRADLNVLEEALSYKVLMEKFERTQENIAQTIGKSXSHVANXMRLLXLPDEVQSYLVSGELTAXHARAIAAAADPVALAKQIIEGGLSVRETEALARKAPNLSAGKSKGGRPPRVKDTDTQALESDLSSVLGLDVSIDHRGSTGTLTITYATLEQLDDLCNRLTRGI

# Variants of: B1
# Assay Explanation: one-hybrid fitness for binding parS DNA (scaled: cognate 1, non-cognate 0); higher = stronger binding
# Run Conditions: with parS DNA site
In all, about 81,000 sequences were measured (“one-hybrid fitness for binding parS DNA”: median about -0.17, highest 2% from about 0.51 on). This excerpt belongs to a sample that is enriched for the highest values.
Reported Property: one-hybrid fitness for binding parS DNA

// known answers, use as guide
RYIA :: 0.496
RYQA :: 0.562
WPSR :: ≤ 0.2
AYGA :: ≤ 0.2
RWNR :: ≤ 0.2

Exam item: What value of one-hybrid fitness for binding parS DNA has been recorded for this entry: RWNM
Marked response: 0.221

Exam item: Same thing, different variant: RVDM
Marked response: 0.258

Exam item: Same thing, different variant: VHIS
Marked response: ≤ 0.2
